Data origin: patent US20240132580A1

Assayed Target: T1, Biotinylated human VEGF-165 (Acro Biosystem) (human, UniProt P15692 207-395, biotinylated (site not stated))
T1 construct: Bought protein; also called human VEGFA
T1 sequence (P15692 other isoform, or with tags, fused parts or gaps): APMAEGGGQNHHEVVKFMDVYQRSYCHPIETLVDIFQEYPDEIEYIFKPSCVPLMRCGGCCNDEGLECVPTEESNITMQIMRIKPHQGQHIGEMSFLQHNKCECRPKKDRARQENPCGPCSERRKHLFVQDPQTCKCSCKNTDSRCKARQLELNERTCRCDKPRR
Test: BLI, biotinylated antigen on streptavidin tips, 1:1 global fit
// koff lookup, one value per entry

13A6 (VHH, Autonomous humanised VH domain (DotBody); also called anti-VEGF DotBody 13A6; clone 13A6) VHH: EVQLVESGGGLVQPGGSLRLSCAISGFSLAATDIDWVRQAPGKGLEWVARIFPSAGSTDYADSVKGRFTISADTSKNTVYLQMNSLRAEDTAVYYCGRSDSYSYNVFLHNPTYTALDYRGQGTLVTVSS; 0.00475 s⁻¹

Please look at the following binder next.
Q. Need koff, item 21D9.1 (VHH, Autonomous humanised VH domain (DotBody), from the 16C2.1-based library with heat challenge; E. coli, ATG codon 5' (possible initiator Met), 3' hexahistidine tag; also called DotBody 21D9.1) VHH: EVQLVESGGGLVQPGGSLRLSCAISGFSLGATDIDWVRQAPGKGLEWVARIFSPSDFTDYADSVKGRFTISADTSKNTVYLQMNSLRAEDTAVYYCSRPDTYAYNIFPHTASHGAFNYRGQGTLVTVSS
A. 0.00099 s⁻¹
